Experiment Notes: qHTS for induction of synthetic lethality in tumor cells producing 2HG: qHTS for the HT-1080-IDH1KD cell line
Experimental Conditions: HT-1080 IDH1 knockdown viability, ATP luminescence, 48 h; series mostly up to 46.1 µM
Out of some 360,000 compounds screened, about 7,500 (2.1%) were called active. Another 8% or so got no clear call; they are omitted. Calls follow the shape of the dose curve; as a rule, active = well fitted cell-killing curve with a large enough effect; inconclusive = small, poorly fitted or top-dose-only effect, or effect the other way, or another doubt; inactive = no such curve, though single readings can be large or run the other way. Only a selection was taken, and actives are over-represented in it overall.
Your answer must be one of the following: active, inactive

CCC(=O)N1Cc2cc(C(=O)NCc3cccc(F)c3)nc(-c3cccc(C4=CCCC4)c3)c2[C@H]1CCO :: inactive
CC1(C(=O)NS(=O)(=O)c2ccccc2)CCN1C(=O)Cc1ccc(-c2ccccc2)cc1 (centres undefined) :: inactive
O=C1CC[C@@H](C(=O)N2CSC[C@@H]2C(=O)Nc2ccc(C(F)(F)F)cc2)N1 :: inactive

Hi team, can someone confirm the assay call for CC(=O)Nc1cccc(-c2cc3nc(NCc4cccnc4)n(C)c(=O)c3s2)c1 ?
inactive

Hi team, can someone confirm the assay call for CN(C)C(=O)c1cccc(-c2cnc3c(NC=O)cc(-c4ccc(F)cc4)cn23)c1 ?
active

Hi team, can someone confirm the assay call for Cc1cn([C@H]2C[C@H](O)[C@@H](CNC(=O)[C@H](N)Cc3cccnc3)O2)c(=O)[nH]c1=O ?
inactive

Hi team, can someone confirm the assay call for Cc1c(C(=O)NCc2ccc(C#N)cc2)sc(=O)n1Cc1ccc(C(=O)N(C)C)cc1 ?
inactive

Hi team, can someone confirm the assay call for COc1cccc(CN(C)C(=O)CC[C@H]2O[C@@H](n3cnc4c(NC(=O)c5ccccc5)ncnc43)[C@H](O)[C@@H]2O)c1 ?
inactive

Hi team, can someone confirm the assay call for CC1CN(C(=O)CCC(=O)NCc2cccnc2)c2ccccc2O1 (centres undefined) ?
inactive

* * *

Experiment Notes: qHTS for induction of synthetic lethality in tumor cells producing 2HG: qHTS for the HT-1080-IDH1KD cell line; also: potency is read from the fitted curve at half-maximal effect
Experimental Conditions: HT-1080 IDH1 knockdown viability, ATP luminescence, 48 h; series mostly up to 46.1 µM
Hit rate of the full screen: of about 360,000 compounds, about 7,500 (2.1%) were called active. About 8% were inconclusive and are not listed. The full list was thinned out, with actives kept by preference.
Reported Property: Potency

Solved cases (8 shown):
Cc1sc2ncnc(SCC(=O)NC3CCS(=O)(=O)C3)c2c1C (configuration not stated) :: inactive
CCc1nc2c(OCCOc3ccccc3)cccn2c1N(C)C(=O)c1cccs1 :: inactive
CCC(C)CN1C(=O)CN(S(C)(=O)=O)CC1(C)C(=O)Nc1ccc2c(c1)OCCO2 (configuration not stated) :: inactive
CCC(C)CN1C(=O)CSCC1(C)C(=O)NCc1ccccc1 (configuration not stated) :: inactive
O=C(COc1ccc(Br)cc1F)NC1CCN(Cc2ccccc2)CC1 :: inactive
COc1cc(CCN=Cc2ccccc2O)c([N+](=O)[O-])cc1OC :: inactive
CNc1cncc(-c2cccc(C(=O)N3CCOCC3)c2)n1 :: inactive
Oc1c(C(c2ccccn2)N2CCOCC2)ccc2cccnc12 (configuration not stated) :: 0.251 µM (active)

Input COC(=O)c1ccc(NC(=O)c2ccccc2NS(=O)(=O)c2ccccc2)cc1 , output reported Potency.
11.2 µM (active)

Input CS(=O)(=O)Nc1ccc(C(=O)N2CCCC2)cc1 , output reported Potency.
inactive

Input CC(C)c1cc(CN2CCOCC2)cc(C(C)C)c1O , output reported Potency.
inactive

Input CC(C)CCNC(=O)c1[nH]c(C(F)(F)F)nc1-c1ccccc1 , output reported Potency.
inactive

Input S=C(Nc1ccc(Br)cc1Cl)NC1CCN(Cc2ccccc2)CC1 , output reported Potency.
20.6 µM (active)

Input COc1cc(-c2nnc(NC(=O)CS(=O)(=O)c3ccc(Cl)cc3)o2)cc(OC)c1OC , output reported Potency.
inactive

Input COC(=O)c1ccccc1NS(=O)(=O)c1ccc2[nH]c(=O)[nH]c2c1 , output reported Potency.
inactive

Input CCCCCCN1C[C@H](O)[C@@H](n2cc(C3CC3)nn2)C[C@@H]1c1ccc(Cl)cc1 , output reported Potency.
inactive

Input COC(=O)C[C@@H]1C=C[C@@H](NC(=O)c2ccc3c(c2)OCO3)[C@@H](CO)O1 , output reported Potency.
inactive

Input O=C1NC[C@H](CCCCN2C[C@H](Cc3ccccc3)N(Cc3ccccc3)C(=O)C2=O)N(CCc2ccc(O)cc2)C1=O , output reported Potency.
inactive

Input COCCCNC(=O)c1ccc(-c2c(C)noc2C)c2ccoc12 , output reported Potency.
inactive

Input O=C(NC1CCN(Cc2ccccc2)CC1)c1cc(Br)c(Br)[nH]1 , output reported Potency.
inactive

Input CNc1cncc(-c2ccc(NS(C)(=O)=O)cc2)n1 , output reported Potency.
5.8 µM (active)

Input CC(C)(C)c1ccc(S(=O)(=O)NC(=O)C2(C)CCN2C(=O)CC2CC2)cc1 (configuration not stated) , output reported Potency.
inactive
